Listed here are compounds together with their documented fold induction at 10 µM.
tested on: primary rat mixed cortical cells; experiment: In vitro myelination assay (MBP positive myelin strands, fold myelin pixels above background); format: cell-based; conditions: Rattus norvegicus, 10.0 μM compound, relative to baseline of no added compound; read-out: Fold myelin pixels above background, 10.0 μM
testReadout: fold induction at 10 µM

>  <compound>
CCOC(=O)N1CCN(c2cc(C)cc(Nc3ncn(-c4cc(F)cc(F)c4)n3)c2)CC1 [Compound 196]

>  <testReadout>
fold induction at 10 µM

>  <obsValue>
≤ 1

$$$$
>  <compound>
Cc1cc(Nc2ncn(-c3cc(F)cc(F)c3)n2)cc(N2CCC(N3CCOCC3)CC2)c1 [Compound 324]

>  <testReadout>
fold induction at 10 µM

>  <obsValue>
10 to 100

$$$$
>  <compound>
COc1cc(OC)cc(-n2cnc(Nc3cc(C4CC4)nc(N4CC[C@@H](F)C4)c3)n2)c1 [Compound 245]

>  <testReadout>
fold induction at 10 µM

>  <obsValue>
10 to 100

$$$$
>  <compound>
c1ccc(-n2cnc(Nc3cc(C4CC4)nc(N4CCC5(CC4)OCCO5)c3)n2)cc1 [Compound 9]

>  <testReadout>
fold induction at 10 µM

>  <obsValue>
100 to 1000

$$$$
>  <compound>
Cc1cc(Nc2ncn(-c3cc(F)cc(F)c3)n2)cc(N2CCN(C(CO)CO)CC2)c1 [Compound 79]

>  <testReadout>
fold induction at 10 µM

>  <obsValue>
≤ 1

$$$$
>  <compound>
Cc1cc(Nc2ncn(-c3ccc(F)c(F)c3)n2)cc(N2CCN(C)CC2)n1 [Compound 263]

>  <testReadout>
fold induction at 10 µM

>  <obsValue>
100 to 1000

$$$$
>  <compound>
OC1(C2CN(c3cc(Nc4ncn(-c5cc(F)cc(F)c5)n4)cc(C(F)(F)F)c3)CCN2)CCC1 (centres unmarked) [Compound 4]

>  <testReadout>
fold induction at 10 µM

>  <obsValue>
≤ 1

$$$$
>  <compound>
Fc1ccc(-n2cnc(Nc3cc(F)cc(N4CCCC4)c3)n2)cc1 [Compound 167]

>  <testReadout>
fold induction at 10 µM

>  <obsValue>
100 to 1000

$$$$
>  <compound>
Fc1ccccc1-n1cnc(Nc2cc(C3CC3)cc(N3CCN(C4COC4)CC3)c2)n1 [Compound 225]

>  <testReadout>
fold induction at 10 µM

>  <obsValue>
100 to 1000

$$$$
>  <compound>
Cc1cc(Nc2ncn(-c3ccc(F)c(F)c3)n2)cc(C2CN(C3COC3)C2)c1 [Compound 301]

>  <testReadout>
fold induction at 10 µM

>  <obsValue>
100 to 1000

$$$$
>  <compound>
Cc1cc(Nc2ncn(-c3ccccc3)n2)cc(C2CCNC2)c1 (centres unmarked) [Compound 39]

>  <testReadout>
fold induction at 10 µM

>  <obsValue>
≤ 1

$$$$
>  <compound>
Cc1cc(Nc2ncn(-c3ccc(F)c(F)c3)n2)cc(NC2CCN(C3COC3)CC2)c1 [Compound 278]

>  <testReadout>
fold induction at 10 µM

>  <obsValue>
1 to 10

$$$$
>  <compound>
Cc1cc(Nc2ncn(-c3cc(F)cc(F)c3)n2)cc(N2CC[N+]([O-])(C3COC3)CC2)c1 [Compound 139]

>  <testReadout>
fold induction at 10 µM

>  <obsValue>
1 to 10

$$$$
>  <compound>
Cc1cc(Nc2ncn(-c3ccccc3)n2)cc(C2CCCN(C3COC3)C2)c1 (centres unmarked) [Compound 248]

>  <testReadout>
fold induction at 10 µM

>  <obsValue>
1 to 10

$$$$
>  <compound>
COc1cccc(-n2cnc(Nc3cc(C)cc(N4CCN(C)CC4)c3)n2)c1 [Compound 94]

>  <testReadout>
fold induction at 10 µM

>  <obsValue>
1 to 10

$$$$
>  <compound>
Fc1cc(Nc2ncn(-c3ccc(F)cc3F)n2)cc(N2CCOCC2)c1 [Compound 321]

>  <testReadout>
fold induction at 10 µM

>  <obsValue>
≤ 1

$$$$
>  <compound>
Fc1cc(Nc2ncn(-c3cccc(C(F)(F)F)c3)n2)cc(N2CCOCC2)c1 [Compound 181]

>  <testReadout>
fold induction at 10 µM

>  <obsValue>
100 to 1000

$$$$
